# procedure.text: Stability in 10% C57BL/6J mouse serum/phosphate-buffered saline assessed as residual parent compound remaining at 1 mM after 30 mins at 37 degC by HPLC method
# Format: ADME, cell-free
# condition.set: 10% mouse serum in phosphate-buffered saline, read-out: Stability
Bridge positions count the residues as written; N and C are the ends. Peptide text beside a SMILES is read from it.
recorded.endpoint: remaining at 0.5 h, 1000 µM (%)
Please give a number only; it is taken to be in %.

* CC[C@H](C)[C@H](NC(=O)[C@H](CCCNC(=N)N)NC(=O)[C@H](CC(=O)O)NC(=O)[C@@H](NC(=O)[C@H](CCCNC(=N)N)NC(=O)CNC(=O)CNC(=O)[C@H](CC1CCCCC1)NC(=O)CNC(=O)[C@H](CO)NC(=O)[C@@H](N)Cc1ccccc1)[C@@H](C)CC)C(=O)NCC(N)=O | 1.4

Please look at the following molecule next.
QUERY: Query (molecule): CC[C@H](C)[C@@H]1NC(=O)[C@H](CCCNC(=N)N)NC(=O)[C@H](CC(=O)O)NC(=O)[C@H]([C@@H](C)CC)NC(=O)[C@H](CCCNC(=N)N)NC(=O)CNC(=O)CNC(=O)[C@H](Cc2ccccc2)NC(=O)[C@@H](NC(=O)[C@H](CO)NC(=O)[C@H](CO)NC(=O)[C@@H](N)CCCNC(=N)N)CSSC[C@@H](C(=O)O)NC(=O)[C@H](C)NC(=O)CNC1=O (H-RSSCFGGRIDRIGAC-OH; disulfide 4-15) ; field requested: remaining at 0.5 h, 1000 µM
RESULT: 4
